- System: COS-7 and HepG2 cells
- Method notes: Cell survival after transfection (cell line not given)
- Type: cell-based
- Run parameters: Table 2; cell line and helper lipid not given
Measured endpoint: % surv cells (%)
Reply numerically in %, unit not repeated.

Form: Entry = CCCCCCCCCCCCCCCC[n+]1ccc(CCCCCCCCCCCCC)cc1.[Cl-] [SF36] | System = COS-7 and HepG2 cells | % surv cells = ____
36.8

Form: Entry = CCCCCCCCCCCCCC[n+]1ccc(CCCCCCCCCCCCC)cc1.[Cl-] [SF35] | System = COS-7 and HepG2 cells | % surv cells = ____
42.35

Form: Entry = CCCCCCCCCCCCCc1cc[n+](CCCCCCCCCC)cc1.[Cl-] [SF33, 1-decyl-4-tridecyl-pyridinium Chloride] | System = COS-7 and HepG2 cells | % surv cells = ____
39.82

Form: Entry = CCCCCCCC/C=C\CCCCCCCCCc1cc[n+](CCCCCCCC/C=C\CCCCCCCC)cc1.[Cl-] [SF6] | System = COS-7 and HepG2 cells | % surv cells = ____
47.3

Form: Entry = CCCCCCCCCCCCCc1cc[n+](CCCCCCCC)cc1.[Cl-] [SF32, 1-octyl-4-tridecyl-pyridinium Chloride] | System = COS-7 and HepG2 cells | % surv cells = ____
44.08

Form: Entry = CCCCCCCCCCCCCCCCCC[n+]1ccc(CCCCCCCCCCCCC)cc1.[Cl-] [SF37, 1-stearyl-4-tridecyl-pyridinium Chloride] | System = COS-7 and HepG2 cells | % surv cells = ____
41.67

Form: Entry = CCCCCCCC/C=C\CCCCCCCCC(CCCCCCCC/C=C\CCCCCCCC)c1cc[n+](C)cc1.[Cl-] [S2, reference compound] | System = COS-7 and HepG2 cells | % surv cells = ____
43.38

Form: Entry = CCCCCCCC/C=C\CCCCCCCC[n+]1ccc(CCCCCCCCCCCCC)cc1.[Cl-] [SF30] | System = COS-7 and HepG2 cells | % surv cells = ____
46.45

Form: Entry = CCCCCCCCCCCCCc1cc[n+](CCCCCCCCCCCC)cc1.[Cl-] [SF34, 1-dodecyl-4-tridecyl-pyridinium Chloride] | System = COS-7 and HepG2 cells | % surv cells = ____
40.88

* * *

- Test system: HepG2
- Method notes: Cell survival after transfection (Table 3); note: tested at 6.8 µM
- Format: cell-based
- Run parameters: HepG2, DOPE, first value
Property: % surv cells; scope: individual compounds
Reply numerically in %, unit not repeated.

Example entries begin here.
Structure as smiles	Target of assay	Unit of measurement	% surv cells
CCCCCCCC/C=C\CCCCCCCC[n+]1ccc(CCCCCCC)cc1.[Cl-]	HepG2	%	28.65
CCCCCCCC/C=C\CCCCCCCC[n+]1ccc(CCCCC)cc1.[Cl-]	HepG2	%	30.55
CCCCCCCC/C=C\CCCCCCCC[n+]1ccc(CCCCCCCCCCCCCCC)cc1.[Cl-]	HepG2	%	45.21

Now let's try a different one.
Which % surv cells is listed for CCCCCCCC/C=C\CCCCCCCCCc1cc[n+](CCCCCCCCCCCCCCCCCC)cc1.[Cl-] ?
16.79

* * *

- Tested on: COS-7 and HepG2 cells
- Method notes: Cell survival after transfection (cell line not given)
- Assay type: cell-based
- Run parameters: Table 9; cell line and helper lipid not given
Measured endpoint: % surv cells (%)
Reply numerically in %, unit not repeated.

Compound	Target of assay	% surv cells / %
CCCCCCCCCCCCCC[n+]1ccc(CCCCCCCCCCCCC)cc1.[Cl-]	COS-7 and HepG2 cells	68.67
CCCCCCCC/C=C\CCCCCCCCCc1cc[n+](CCCCCCCC/C=C\CCCCCCCC)cc1.[Cl-]	COS-7 and HepG2 cells	70.01

Form: Entry = CCCCCCCCCCCCCc1cc[n+](CCCCCCCCCCCC)cc1.[Cl-] [SF34, 1-dodecyl-4-tridecyl-pyridinium Chloride] | System = COS-7 and HepG2 cells | % surv cells = ____
68.01

Form: Entry = CCCCCCCCCCCCCc1cc[n+](CCCCCCCCCC)cc1.[Cl-] [SF33, 1-decyl-4-tridecyl-pyridinium Chloride] | System = COS-7 and HepG2 cells | % surv cells = ____
68.99
